systemUnderTest: Dickkopf-related protein 1 (Homo sapiens)
protocolSummary: DKK1 binders on small-molecule microarrays, primary screen, biochemical, small-molecule microarray, 635 nm fluorescence scan (AID 1106);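 note: score merges emission near 667 nm with signal to noise over three replicate slides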
experimentalSetup: DKK1 binding, higher = more signal
readoutType: composite z-score
I'd appreciate a reply containing only the number, no unit.

Example entries and their recorded answers appear below.
compound: COC(=O)C1=CCC(c2cccc(Cl)c2)O1 (stereo not drawn)
systemUnderTest: Dickkopf-related protein 1 (Homo sapiens)
readoutType: composite z-score
val: -0.476
--
compound: COC(=O)[C@H](C)NC(=O)CCC1CC(OC(=O)NCCc2ccc(F)cc2)CC2(CCCC(COC(=O)NCC(c3ccccc3)c3ccccc3)O2)O1 (stereo partly drawn)
systemUnderTest: Dickkopf-related protein 1 (Homo sapiens)
readoutType: composite z-score
val: 0.457
--
compound: COC(=O)[C@@H]1CCCN1C(=O)[C@@H](C)CO
systemUnderTest: Dickkopf-related protein 1 (Homo sapiens)
readoutType: composite z-score
val: 0.547
--
compound: CCc1cccc(NC(=O)O[C@H]2[C@H](OC(=O)Nc3ccc4c(c3)OCO4)[C@@H](OC(=O)Nc3ccc4c(c3)OCO4)[C@@H](OC)O[C@@H]2CO)c1
systemUnderTest: Dickkopf-related protein 1 (Homo sapiens)
readoutType: composite z-score
val: 0.583
--
compound: CC(C)CON=C1C[C@@H](O)[C@@H](O)[C@@H]2[C@@H]3C(=O)N([C@@H](C)c4ccccc4)C(=O)[C@@H]3CC[C@H]12
systemUnderTest: Dickkopf-related protein 1 (Homo sapiens)
readoutType: composite z-score
val: 0.76

Exercise: Reported composite z-score, compound C[C@@H]1CC[C@H]2C(=O)O[C@H](COc3ccc(C(C)(C)C)cc3)CN2[C@H]1c1ccc(Br)cc1 : ____
Solution: 0.0539

Exercise: Same lookup for C#C[C@@H](CC)O[Si](C#Cc1ccc(Oc2ccccc2)cc1)(C(C)C)C(C)C , please.
Solution: 0.125

Exercise: Same lookup for O=C1[C@H]2[C@H]3[C@H](O)[C@H](O)CC(=NOCc4ccccc4)[C@H]3CC[C@H]2C(=O)N1c1cccc(Oc2ccccc2)c1 , please.
Solution: 0.487

---

protocolSummary: S. cerevisiae RM11-1a growth modifiers, primary screen, strain RM11-1a, OD600, basal, 24 h (AID 1177);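 note: cultures grown under basal conditions with no added stressor; test concentration not given here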
experimentalSetup: OD600, 24 h, higher = more signal, called active from +8 up or from −8 down
readoutType: z-score
I'd appreciate a reply containing only the number, no unit.

Example entries and their recorded answers appear below.
compound: CC(C)C[C@@H]1NC(=O)[C@H]2C[C@@H](C(=O)O)[C@@H](c3ccc(O)cc3)N2C1=O
readoutType: z-score
val: 1.58

compound: O=C(CS)NCCCCCNC(=O)[C@H]1C[C@H]2C(=O)N3CCC[C@H]3C(=O)N2[C@H]1c1cccc(OCCO)c1
readoutType: z-score
val: 0.18

compound: CO[C@H]1COC(=O)CC=C[C@H](C)[C@@H](NS(=O)(=O)c2ccc(C)cc2)COC(=O)CC=C[C@@H]1C
readoutType: z-score
val: -4.14

Okay, now this compound:
Exercise: Reported z-score, compound O=C1C[C@@H](O)[C@@H](O)[C@@H]2[C@@H]3C(=O)N(Cc4ccc5c(c4)OCO5)C(=O)[C@@H]3CC[C@@H]12 : ____
Solution: 0.258

---

z-score by entry:
protocolSummary: adipocyte viability effects, profiling panel, cell-based, 3T3-L1 adipocytes, calcein-AM fluorescence, 48 h, basal (AID 1163); note: test concentration not given here
experimentalSetup: 3T3-L1 adipocytes viability, higher = more signal
I'd appreciate a reply containing only the number, no unit.

molecule: COc1ccc(CCNC(=O)[C@@H]2c3ccccc3C(=O)N(c3ccc(C)cn3)[C@H]2c2ccc(CO)cc2)cc1
z-score: 0.821
--
molecule: COC(=O)C1=CCC(c2cccc(Cl)c2)O1 (stereo not given)
z-score: -0.0098
--
molecule: C/C=C\[C@@H](NCc1ccccc1Br)[C@@H](O)Cc1ccccc1
z-score: 1.43
--
molecule: CCN1C(=O)[C@H]2[C@H]3[C@H](O)[C@H](O)CC(=NOCc4ccccc4)[C@@H]3CC[C@H]2C1=O
z-score: 0.817
--
molecule: C=CC[C@]1(C(=O)NCc2ccccc2)N=C(c2ccc(OCCCO)cc2)O[C@H]1c1ccccc1
z-score: 0.43

Exercise: Reported z-score, molecule O=C1C[C@]2(c3ccc([N+](=O)[O-])cc3)C(=O)N(CCN3CCOCC3)c3cc(CO)ccc3[C@H]2N1CC12CC3CC(CC(C3)C1)C2 : ____
Solution: 0.15

Exercise: Same lookup for Cc1ccc(S[C@]2(C(=O)NCC(F)(F)F)CC(=O)N(Cc3ccccc3Cl)[C@@H]2c2ccc(CO)cc2I)cc1 , please.
Solution: -0.798

Exercise: Same lookup for CC(=O)OC[C@H]1O[C@H](C#CCCCc2ccccc2)C=C[C@@H]1OC(C)=O , please.
Solution: -0.0563
